Biological target: human ether-à-go-go-related gene (hERG) potassium channel (human, UniProt Q12809)
Sequence (Q12809 whole entry, looked up): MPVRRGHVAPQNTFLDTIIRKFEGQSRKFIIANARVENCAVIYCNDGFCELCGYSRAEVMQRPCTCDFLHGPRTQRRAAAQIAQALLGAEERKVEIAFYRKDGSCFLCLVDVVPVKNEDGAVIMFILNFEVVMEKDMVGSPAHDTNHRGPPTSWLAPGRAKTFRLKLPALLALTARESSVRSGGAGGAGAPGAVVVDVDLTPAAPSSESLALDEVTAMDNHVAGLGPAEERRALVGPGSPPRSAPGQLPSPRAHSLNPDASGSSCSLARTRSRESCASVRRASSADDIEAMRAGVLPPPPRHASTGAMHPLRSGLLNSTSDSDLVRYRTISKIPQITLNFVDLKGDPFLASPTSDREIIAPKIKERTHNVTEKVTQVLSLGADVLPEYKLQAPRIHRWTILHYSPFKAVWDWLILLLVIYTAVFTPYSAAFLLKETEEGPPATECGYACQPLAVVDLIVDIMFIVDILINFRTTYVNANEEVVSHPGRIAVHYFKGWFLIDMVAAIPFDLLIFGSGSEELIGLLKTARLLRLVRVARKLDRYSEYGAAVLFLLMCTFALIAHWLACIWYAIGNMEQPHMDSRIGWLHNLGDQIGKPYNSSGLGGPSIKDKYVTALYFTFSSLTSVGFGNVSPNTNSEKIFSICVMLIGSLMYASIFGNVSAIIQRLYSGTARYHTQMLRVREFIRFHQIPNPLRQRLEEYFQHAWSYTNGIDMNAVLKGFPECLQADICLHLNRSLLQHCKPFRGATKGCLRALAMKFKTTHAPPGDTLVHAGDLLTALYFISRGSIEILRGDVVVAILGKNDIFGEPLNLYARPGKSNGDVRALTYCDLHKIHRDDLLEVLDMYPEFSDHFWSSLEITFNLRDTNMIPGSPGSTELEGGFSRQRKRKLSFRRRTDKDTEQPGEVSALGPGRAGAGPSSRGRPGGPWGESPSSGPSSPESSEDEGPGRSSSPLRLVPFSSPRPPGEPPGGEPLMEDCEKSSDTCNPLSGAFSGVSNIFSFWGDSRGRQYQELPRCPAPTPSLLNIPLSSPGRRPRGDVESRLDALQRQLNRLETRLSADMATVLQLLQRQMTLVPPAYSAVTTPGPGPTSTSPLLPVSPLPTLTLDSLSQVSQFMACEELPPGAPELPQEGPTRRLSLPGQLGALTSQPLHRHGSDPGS
Assay: primary screen, population patch clamp on CHO cells stably expressing hERG; higher = less effect of the substance
Hit rate of the full screen: of about 310,000 compounds, about 2,200 (0.71%) showed an effect of 50% or more. The effect is printed as a negative number. The sample holds strong results, similar compounds and a random draw of the others, so the mix is not that of the screen.
Reported metric: hERG current change (%, negative = inhibition) at 1uM (%)
Your answer should be a plain number; it is taken to be in %.

// lookup hERG current change (%, negative = inhibition) at 1uM for CCCCCCCCCCOC(=O)Cn1c(COc2cccc(C)c2)[n+](C)c2ccccc21.[Cl-]
-43.9

// lookup hERG current change (%, negative = inhibition) at 1uM for CC(C)N(CC#CC(O)(c1ccccc1)c1ccccc1)C(C)C
-38.1

// lookup hERG current change (%, negative = inhibition) at 1uM for O=C(CSc1ccc(Cl)cc1)Nc1nnc(-c2ccco2)o1
-1.41

// lookup hERG current change (%, negative = inhibition) at 1uM for CC(C)Oc1ccc(CCC(=O)N/N=C/c2ccc3c(c2)OCO3)cc1
16.1

// lookup hERG current change (%, negative = inhibition) at 1uM for CCCCCCCCCCOC(=O)Cn1c(COc2ccccc2)[n+](C)c2ccccc21.[Cl-]
-46.5

// lookup hERG current change (%, negative = inhibition) at 1uM for CC1(C)C(=O)OC(c2c3ccccc3cc3ccccc23)C(C)(C)C1=O (stereo not drawn)
0.485

// lookup hERG current change (%, negative = inhibition) at 1uM for COc1cc(OC)cc(C(=O)NNC(=O)c2ccc(S(=O)(=O)N(C)c3ccccc3OC)cc2)c1
13.2

// lookup hERG current change (%, negative = inhibition) at 1uM for O=C1C=C(N2CCCCC2)C2(CCCCC2)O1
10.8

// lookup hERG current change (%, negative = inhibition) at 1uM for CCCCCCCCCCOC(=O)Cn1c(COc2ccc(Cl)cc2)[n+](C)c2ccccc21.[Cl-]
-79.1

// lookup hERG current change (%, negative = inhibition) at 1uM for Cc1cc2cc(C(c3nnnn3Cc3ccco3)N3CCCCC3)c(=O)[nH]c2cc1C (stereo not drawn)
6.29

// lookup hERG current change (%, negative = inhibition) at 1uM for CCCC(=NCCc1c(C)[nH]c2ccccc12)C1=C(O)CC(c2ccccc2)CC1=O (stereo not drawn)
-11.1

// lookup hERG current change (%, negative = inhibition) at 1uM for CCCCCCCCCCOC(=O)Cn1c(COc2ccc(OC)cc2)[n+](C)c2ccccc21.[Cl-]
-70.9

---

Field: hERG current change (%, negative = inhibition) at 1uM. Provide a value for each of the molecules that follow.
Target: human ether-à-go-go-related gene (hERG) potassium channel (human, UniProt Q12809)
Assay: primary screen, population patch clamp on CHO cells stably expressing hERG; higher = less effect of the substance
Excerpt: Briefly, Chinese hamster ovary (CHO) cells stably expressing the hERG channel were dislodged from tissue culture flasks and dispensed into PPC plates. […] Small molecule effects on hERG current density were quantified by […].
The whole screen tested about 310,000 compounds, of which about 2,200 (0.71%) showed an effect of 50% or more. The effect is printed as a negative number. This excerpt belongs to a sample that is enriched for strong results.
Your answer should be a plain number; it is taken to be in %.

// lookup hERG current change (%, negative = inhibition) at 1uM for CC(C)Cc1ccc(CN2CCCC(NC(=O)c3ccnn3C)C2)cc1 (stereo not drawn)
-50.4

// lookup hERG current change (%, negative = inhibition) at 1uM for Cc1cccc(NC(=O)c2cc(NC(=O)c3ccccc3)ccc2N2CCCCC2)c1
3.79

// lookup hERG current change (%, negative = inhibition) at 1uM for CCCCCn1c(=O)[nH]c2cc(C(=O)NCCN3CCOCC3)ccc2c1=O
6.68

// lookup hERG current change (%, negative = inhibition) at 1uM for CCN(CC)S(=O)(=O)c1cc(NC(=O)C(C)N2CCc3ccccc32)ccc1C (stereo not drawn)
9.99

// lookup hERG current change (%, negative = inhibition) at 1uM for O=Cc1cn(CC(=O)Nc2ccccc2)c2ccccc12
6.4

// lookup hERG current change (%, negative = inhibition) at 1uM for COc1ccc(C(=O)N2CCN(CCNC(=O)C(=O)Nc3ccc(Br)cc3)CC2)cc1
-25.2

// lookup hERG current change (%, negative = inhibition) at 1uM for FC(F)(F)c1cccc(N2CCN(C(=S)NCC3CCCO3)CC2)c1 (stereo not drawn)
4.59

// lookup hERG current change (%, negative = inhibition) at 1uM for Cc1c(CC(=O)N[C@@H](C)C(=O)O)c(=O)oc2cc3occ(-c4ccccc4)c3cc12
18.2

// lookup hERG current change (%, negative = inhibition) at 1uM for COc1ccc2nc(SCC(=O)Nc3ccc(S(=O)(=O)N4CCCC4)cc3)c(C#N)cc2c1
-3.01
